Entries and their pIC50 values follow.
biological target: adenosine A2B receptor (Homo sapiens (Human)); experiment: Adenosine receptor activity assay (Table 1), A2B activity; assay type: biochemical; conditions: read-out: Ave A2B cAMP IC50
pIC50: −log10 of the molar value.

[Q] Fill in pIC50 for record `C[C@H](Nc1nc(C(=O)N2CCC(F)(F)C2)c2sccc2n1)c1cccnc1`
[A] 7.30 to 8.00

[Q] Fill in pIC50 for record `CCNC(=O)c1ccc(CCNC(=O)c2nc(N[C@@H](C)c3cncc(F)c3)nc3cc(C)sc23)cc1`
[A] 7.30 to 8.00

[Q] Fill in pIC50 for record `Cc1cc2nc(N[C@@H](C)c3cncc(F)c3)nc(C(=O)N3CC(NC(=O)C(C)(C)C)C3)c2s1`
[A] 7.30 to 8.00

[Q] Fill in pIC50 for record `Cc1cc2nc(N[C@@H](C)c3cncc(F)c3)nc(C(=O)N3CC(N(C)C(=O)OC(C)(C)C)C3)c2s1`
[A] 7.30 to 8.00

[Q] Fill in pIC50 for record `Cc1cc2nc(N[C@@H](C)c3cncc(F)c3)nc(C(=O)N3CC(CS(C)(=O)=O)C3)c2s1`
[A] > 8.00

New cases:
[Q] Fill in pIC50 for record `Cc1cc2nc(N[C@@H](C)c3cncc(F)c3)nc(C(=O)N3CC[C@H](CO)C3)c2s1`
[A] > 8.00

[Q] Fill in pIC50 for record `CC(C)NC(=O)c1nc(N[C@@H](C)c2ccccn2)nc2ccsc12`
[A] > 8.00

---

experiment: Hepatocyte (Hep) intrinsic clearance, human; format: in vitro ADME; details: hepatocytes
observation_type: hepatocyte CLint (µL/min/1e6 cells)

[Q] Fill in hepatocyte CLint for record `O=C(c1nc(NCc2cncc(F)c2)nc2ccsc12)N1CC[C@H](F)C1`
[A] 21.1

[Q] Fill in hepatocyte CLint for record `O=C(c1nc(NCc2cccc(Cl)c2)nc2ccsc12)N1CC(O)C1`
[A] 68.4

I = O=C(c1nc(NCc2cccc(Cl)c2)nc2ccsc12)N1CCC1
II = C[C@H](Nc1nc(C(=O)NC2CC(O)C2)c2sccc2n1)c1ccccn1 (stereo partly shown)
[Q] Which of the two items, I and II , has the greater recorded hepatocyte CLint? Give the label of your selection.
[A] I
(I: 85.1 µL/min/1e6 cells, II: 20.6 µL/min/1e6 cells)

---

biological target: adenosine A2A receptor (Homo sapiens (Human), UniProt P29274); assay: Adenosine receptor activity assay (Table 1), A2A activity; format: biochemical; details: read-out: Ave A2A cAMP IC50
Sequence (P29274 whole entry): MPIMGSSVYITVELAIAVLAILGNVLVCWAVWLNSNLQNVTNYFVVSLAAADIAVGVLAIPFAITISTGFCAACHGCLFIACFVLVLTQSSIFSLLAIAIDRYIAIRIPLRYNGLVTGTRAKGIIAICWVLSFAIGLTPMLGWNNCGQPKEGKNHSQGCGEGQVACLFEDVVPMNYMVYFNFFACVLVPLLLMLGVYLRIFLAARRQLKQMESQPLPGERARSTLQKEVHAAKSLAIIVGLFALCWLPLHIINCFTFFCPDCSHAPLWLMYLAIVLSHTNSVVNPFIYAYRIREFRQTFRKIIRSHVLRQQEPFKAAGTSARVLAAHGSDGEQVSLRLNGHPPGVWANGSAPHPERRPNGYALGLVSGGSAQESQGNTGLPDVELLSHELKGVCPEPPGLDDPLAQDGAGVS
Entries and their IC50 values follow.

The following molecules have reported results that may help.
[Q] Fill in IC50 for record `C[C@H](Nc1nc(C(=O)N2CC[C@H](N)C2)c2sccc2n1)c1ccccn1`
[A] > 500 nM

[Q] Fill in IC50 for record `O=C(NC[C@H]1CCCN1)c1nc(NCc2cncc(F)c2)nc2ccsc12`
[A] > 500 nM

Let's switch to this molecule now.
[Q] Fill in IC50 for record `CN[C@@H]1CCN(C(=O)c2nc(N[C@@H](C)c3cncc(F)c3)nc3cc(C)sc23)C1`
[A] > 500 nM

---

biological target: adenosine A2A receptor (Homo sapiens (Human)); assay: Adenosine receptor activity assay (Table 1), A2A activity; assay type: biochemical; settings: read-out: Ave A2A cAMP IC50
Entries and their IC50 values follow.

The following compounds have reported results that may help.
[Q] Fill in IC50 for record `Cc1cc2nc(N[C@@H](C)c3cncc(F)c3)nc(C(=O)N3CCCC3)c2s1`
[A] 50 to 100 nM

[Q] Fill in IC50 for record C[C@H](Nc1nc(C(=O)NC(CO)c2cccnc2)c2sccc2n1)c1ccccn1 (some centres unmarked)
[A] 100 to 500 nM

[Q] Fill in IC50 for record `COCCC(=O)N1CCN(C(=O)c2nc(N[C@@H](C)c3cncc(F)c3)nc3ccsc23)C1`
[A] > 500 nM

[Q] Fill in IC50 for record `O=C(NCCn1ccnc1)c1nc(NCc2cncc(F)c2)nc2ccsc12`
[A] > 500 nM

New cases:
[Q] Fill in IC50 for record `COC1CN(C(=O)c2nc(N[C@@H](C)c3cccnc3)nc3ccsc23)C1`
[A] 50 to 100 nM

---

Entries and their pIC50 values follow.
target: adenosine A2B receptor (Homo sapiens (Human)); test: Adenosine receptor activity assay (Table 1), A2B activity; type: biochemical; details: read-out: Ave A2B cAMP IC50
pIC50: −log10 of the molar value.

[Q] Fill in pIC50 for record Cc1cc2nc(N[C@@H](C)c3cccnc3)nc(C(=O)NCC3CCOCC3)c2s1 [Example Z375]
[A] 7.30 to 8.00

[Q] Fill in pIC50 for record Cc1cc2nc(N[C@@H](C)c3ccccn3)nc(C(=O)NCCO)c2s1 [Example Z353]
[A] > 8.00

[Q] Fill in pIC50 for record C[C@H](Nc1nc(C(=O)N2CC[C@H](N)C2)c2sccc2n1)c1cncc(F)c1 [Example Z362]
[A] 7.30 to 8.00

[Q] Fill in pIC50 for record C[C@H](Nc1nc(C(=O)NCCC2CCN(C(=O)OC(C)(C)C)C2)c2sccc2n1)c1ccccn1 (stereo partly shown) [Example Z425]
[A] 6.30 to 7.00

[Q] Fill in pIC50 for record C[C@H](Nc1nc(C(=O)NC[C@@H](C)O)c2sc(C(F)(F)F)cc2n1)c1cccnc1 [Example Z348]
[A] 7.30 to 8.00

[Q] Fill in pIC50 for record Cc1csc2c(C(=O)NCc3cccnc3)nc(N[C@@H](C)c3ccccn3)nc12 [Example Z458]
[A] 7.30 to 8.00

[Q] Fill in pIC50 for record C[C@H](O)CNC(=O)c1nc(N[C@@H](C)c2cccnc2)nc2cc(C(F)(F)F)sc12 [Example Z347]
[A] 7.30 to 8.00

[Q] Fill in pIC50 for record COc1ccc(CNC(=O)c2nc(N[C@@H](C)c3ccncc3)nc3ccsc23)cn1 [Example Z345]
[A] 7.00 to 7.30

[Q] Fill in pIC50 for record COc1ccc(CNC(=O)c2nc(N[C@@H](C)c3ccccn3)nc3cc(C)sc23)cn1 [Example Z469]
[A] 7.30 to 8.00

[Q] Fill in pIC50 for record C[C@H](Nc1nc(C(=O)N[C@H]2C[C@H](O)C2)c2sccc2n1)c1cncc(Cl)c1 [Example Z306]
[A] 7.30 to 8.00

[Q] Fill in pIC50 for record Cc1cc2nc(N[C@@H](C)c3ccccn3)nc(C(=O)N3CCCC3)c2s1 [Example Z244]
[A] > 8.00

[Q] Fill in pIC50 for record COC[C@@H](Nc1nc(C(=O)NC[C@H](C)O)c2sccc2n1)c1cccnc1 [Example Z320]
[A] 7.00 to 7.30

[Q] Fill in pIC50 for record O=C(c1nc(NCc2cncc(F)c2)nc2ccsc12)N1CC[C@@H](F)C1 [Example Z60]
[A] > 8.00

[Q] Fill in pIC50 for record CNc1cc2nc(N[C@@H](C)c3cncc(F)c3)nc(C(=O)N3CCCC3)c2s1 [Example Z210]
[A] > 8.00

[Q] Fill in pIC50 for record C[C@H](Nc1nc(C(=O)N2CC(C(=O)NOC(C)(C)C)C2)c2sccc2n1)c1cncc(F)c1 [Example Z579]
[A] 7.00 to 7.30

[Q] Fill in pIC50 for record CC(=O)Nc1ccc(CCNC(=O)c2nc(N[C@@H](C)c3cncc(F)c3)nc3cc(C)sc23)cc1 [Example Z488]
[A] > 8.00

---

molecular target: adenosine A2B receptor (Homo sapiens (Human), UniProt P29275); assay: Adenosine receptor activity assay (Table 1), A2B activity; format: biochemical; settings: A2A activity to A2B activity (A2A/A2B)
Sequence (P29275 whole entry): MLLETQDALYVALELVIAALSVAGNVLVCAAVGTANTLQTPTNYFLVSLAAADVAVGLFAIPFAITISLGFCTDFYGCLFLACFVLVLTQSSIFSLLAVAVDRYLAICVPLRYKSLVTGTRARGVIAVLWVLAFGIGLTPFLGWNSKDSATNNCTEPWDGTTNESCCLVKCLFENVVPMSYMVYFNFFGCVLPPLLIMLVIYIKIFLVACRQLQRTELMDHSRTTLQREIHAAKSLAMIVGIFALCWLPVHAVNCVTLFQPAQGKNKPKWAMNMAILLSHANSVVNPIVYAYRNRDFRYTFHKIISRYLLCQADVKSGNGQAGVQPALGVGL
observation_type: Ratio

[Q] Fill in Ratio for record C[C@H](Nc1nc(C(=O)N2CC[C@@H](O)C2)c2sc(N)cc2n1)c1cncc(F)c1 [Example Z242]
[A] 45.21

P = O=C(NCc1cccnn1)c1nc(NCc2cccnn2)nc2ccsc12 [Example Z35]
Q = C[C@H](Nc1nc(C(=O)NCc2ccccc2)c2sccc2n1)c1cccnc1 [Example Z42]
[Q] Which of the two items, P and Q , has the greater recorded Ratio? Give the label of your selection.
[A] P
(P: 1.00, Q: 0.20)

1 = C[C@H](Nc1nc(C(=O)N2CCNC2)c2sccc2n1)c1cccnc1 [Example Z148]
2 = O=C(c1nc(NCc2cncc(F)c2)nc2ccsc12)N1CC[C@H](O)C1 [Example Z62]
3 = C[C@H](Nc1nc(C(=O)N2CC[C@H](N)C2)c2sccc2n1)c1ccccn1 [Example Z363]
[Q] Order the records so the highest Ratio appears first and the lowest last. Response field: labels, in requested order.
[A] 2, 3, 1

P = C[C@H](Nc1nc(C(=O)N2CC[C@@H](O)C2)c2sc(N)cc2n1)c1cccnc1 [Example Z220]
Q = CCN(CC)C(=O)c1nc(N[C@@H](C)c2cccnc2)nc2ccsc12 [Example Z41]
[Q] Which of the two items, P and Q , has the greater recorded Ratio? Give the label of your selection.
[A] P
